Collected combination Emax values appear next to each entry.
# Tested on: NCI-H1915 (Non-Small Cell Lung Carcinoma)
# assay comment: combination Emax (second highest fraction inhibited in the dose matrix, 72 h); higher = more inhibition; extreme values may be limits of the assay
property name: combination Emax

compound="CN(CCO)CC[C@H](CSc1ccccc1)Nc1ccc(S(=O)(=O)NC(=O)c2ccc(N3CCC([C@@H](O)c4ccccc4-c4ccc(Cl)cc4)CC3)cc2)cc1S(=O)(=O)C(F)(F)F [AZD4320] + CN(C)CCCOc1ccc(-c2ccc3ncc4c(c3c2)n(C2CCOCC2)c(=O)n4C)cn1 [AZD0156] (first compound max 1 µM, 7x7, partner max 1 µM)" result=0.271
compound="Cc1c2c(nn1C)CSCc1cc(n(C)n1)CSc1cc(c3ccccc3c1)OCCCc1c(C(=O)O)n(C)c3c-2c(Cl)ccc13 [AZD5991] + Cc1cc2ncnn2cc1Nc1ncc2c(n1)n(C1CCOCC1)c(=O)n2C [AZD7648] (first compound max 1 µM, 7x7, partner max 10 µM)" result=0.3
compound="Cc1nc(Nc2ncc(C(=O)Nc3c(C)cccc3Cl)s2)cc(N2CCN(CCO)CC2)n1 [Dasatinib] + CC(=O)Nc1cccc(-n2c(=O)n(C3CC3)c(=O)c3c(Nc4ccc(I)cc4F)n(C)c(=O)c(C)c32)c1 [Trametinib] (first compound max 2 µM, 7x7, partner max 1 µM)" result=1

All figures here come from the supplement of paper PMC11061612.
